testSystem: HiBiT-tagged IKZF1 (Homo sapiens, UniProt Q13422+Q96SW2)
Construct: expressed in transfected cells; host or cells: HT-1080 (ATCC CCL-121), lentiviral transduction
Sequence (Q13422 whole entry, one chain of several): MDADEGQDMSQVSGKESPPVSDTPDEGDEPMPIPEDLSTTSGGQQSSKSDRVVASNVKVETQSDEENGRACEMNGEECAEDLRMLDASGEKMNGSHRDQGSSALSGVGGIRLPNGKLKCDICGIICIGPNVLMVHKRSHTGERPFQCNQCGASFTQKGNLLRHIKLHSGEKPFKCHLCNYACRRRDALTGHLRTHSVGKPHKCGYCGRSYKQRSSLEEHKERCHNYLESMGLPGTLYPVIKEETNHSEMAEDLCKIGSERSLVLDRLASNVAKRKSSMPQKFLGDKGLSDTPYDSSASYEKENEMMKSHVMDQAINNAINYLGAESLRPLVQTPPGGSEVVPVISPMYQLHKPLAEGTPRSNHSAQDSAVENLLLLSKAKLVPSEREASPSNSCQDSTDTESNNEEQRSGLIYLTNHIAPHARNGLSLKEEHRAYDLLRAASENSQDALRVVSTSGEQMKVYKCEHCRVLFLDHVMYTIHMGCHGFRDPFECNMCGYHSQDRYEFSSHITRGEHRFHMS
assayText: Degradation assay for IKZF1 (HiBiT tag bioluminescence assay)
Format: cell-based
experimentalContext: HT-1080, Table 1; HT-1080 IKZF1 HiBiT reporter cells; maximum percentage of protein degradation
assayEndpoint: Dmax (%)

N#Cc1ccc(N2CCN(Cc3ccc(Cc4ccc5c6c(cc(F)cc46)C(=O)N5[C@H]4CCC(=O)NC4=O)cc3)CC2)c(F)c1 (single isomer, unassigned) | 90.9
N#Cc1ccc2c(c1)OC[C@H]1CN(Cc3ccc(Cc4ccc5c6c(cc(F)cc46)C(=O)N5C4CCC(=O)NC4=O)cn3)CCN21 (stereo partly shown) | 91.8
N#Cc1ccc(N2CCN(Cc3ccc(Cc4ccc5c6c(cc(F)cc46)C(=O)N5[C@@H]4CCC(=O)NC4=O)cc3)CC2)c(F)c1 (single isomer, unassigned) | 89.9
O=C1CCC(N2C(=O)c3cc(F)cc4c(Cc5ccc(CN6CCC7(CCCO7)CC6)cc5F)ccc2c34)C(=O)N1 (stereo not shown) | 86.3
O=C1CCC(N2C(=O)c3cc(F)cc4c(Cc5ccc(CN6CCOCC6)cc5)ccc2c34)C(=O)N1 (stereo not shown) | 69.3
N#Cc1cnc2c(c1)OC[C@H]1CN(Cc3ccc(Cc4ccc5c6c(cccc46)C(=O)N5C4CCC(=O)NC4=O)c(F)c3)CCN21 (stereo partly shown) | 93.5
N#Cc1ccc2c(c1)OC[C@H]1CN(Cc3ccc(Cc4ccc5c6c(cc(F)cc46)C(=O)N5C4CCC(=O)NC4=O)cc3)CCN21 (stereo partly shown) | 93.2

---

testSystem: HiBiT-tagged SALL4 (Homo sapiens, UniProt Q96SW2+Q9UJQ4)
Construct: expressed in transfected cells; host or cells: HT-1080 (ATCC CCL-121), lentiviral transduction
Sequence (Q9UJQ4 whole entry): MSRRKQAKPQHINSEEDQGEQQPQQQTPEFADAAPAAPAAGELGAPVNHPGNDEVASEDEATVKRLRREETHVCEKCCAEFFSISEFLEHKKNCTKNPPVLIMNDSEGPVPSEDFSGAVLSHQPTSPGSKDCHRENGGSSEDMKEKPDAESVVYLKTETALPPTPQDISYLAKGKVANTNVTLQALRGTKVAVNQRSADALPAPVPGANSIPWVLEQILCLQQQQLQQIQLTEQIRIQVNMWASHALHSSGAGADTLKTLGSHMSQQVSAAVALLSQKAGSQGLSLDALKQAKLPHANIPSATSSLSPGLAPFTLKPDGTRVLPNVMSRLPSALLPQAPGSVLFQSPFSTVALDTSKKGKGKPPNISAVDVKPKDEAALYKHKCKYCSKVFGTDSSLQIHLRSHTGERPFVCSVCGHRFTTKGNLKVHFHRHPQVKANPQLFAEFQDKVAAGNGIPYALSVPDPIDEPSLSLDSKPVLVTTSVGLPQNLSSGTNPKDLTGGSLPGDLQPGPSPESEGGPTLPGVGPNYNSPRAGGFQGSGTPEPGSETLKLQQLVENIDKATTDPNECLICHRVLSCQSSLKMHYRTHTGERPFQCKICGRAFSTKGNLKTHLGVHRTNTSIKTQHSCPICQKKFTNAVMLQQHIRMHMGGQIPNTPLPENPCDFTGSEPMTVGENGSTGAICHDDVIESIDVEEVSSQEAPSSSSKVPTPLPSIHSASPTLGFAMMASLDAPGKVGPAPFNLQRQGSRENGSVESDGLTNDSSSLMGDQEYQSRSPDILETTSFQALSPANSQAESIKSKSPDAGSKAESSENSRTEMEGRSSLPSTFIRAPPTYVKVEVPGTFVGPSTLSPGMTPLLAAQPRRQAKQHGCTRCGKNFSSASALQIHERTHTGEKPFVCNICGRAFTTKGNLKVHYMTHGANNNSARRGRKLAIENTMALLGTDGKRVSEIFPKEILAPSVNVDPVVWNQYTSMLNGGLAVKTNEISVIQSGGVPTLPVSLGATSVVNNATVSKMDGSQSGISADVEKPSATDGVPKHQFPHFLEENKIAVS
Sequence (Q96SW2 whole entry): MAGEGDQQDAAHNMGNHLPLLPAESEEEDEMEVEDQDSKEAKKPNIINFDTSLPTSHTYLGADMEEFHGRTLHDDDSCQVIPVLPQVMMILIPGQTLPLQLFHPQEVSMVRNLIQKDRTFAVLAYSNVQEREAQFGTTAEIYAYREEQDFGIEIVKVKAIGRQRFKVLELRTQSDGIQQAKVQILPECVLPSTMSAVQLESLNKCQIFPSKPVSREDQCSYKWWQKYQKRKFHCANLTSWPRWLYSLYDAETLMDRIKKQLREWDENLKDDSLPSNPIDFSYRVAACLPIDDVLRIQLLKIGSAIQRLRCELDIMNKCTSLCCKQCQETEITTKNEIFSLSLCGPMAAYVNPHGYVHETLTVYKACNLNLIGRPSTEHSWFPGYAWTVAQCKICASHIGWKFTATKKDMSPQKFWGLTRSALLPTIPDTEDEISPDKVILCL
Sequence (Q16531 whole entry partner): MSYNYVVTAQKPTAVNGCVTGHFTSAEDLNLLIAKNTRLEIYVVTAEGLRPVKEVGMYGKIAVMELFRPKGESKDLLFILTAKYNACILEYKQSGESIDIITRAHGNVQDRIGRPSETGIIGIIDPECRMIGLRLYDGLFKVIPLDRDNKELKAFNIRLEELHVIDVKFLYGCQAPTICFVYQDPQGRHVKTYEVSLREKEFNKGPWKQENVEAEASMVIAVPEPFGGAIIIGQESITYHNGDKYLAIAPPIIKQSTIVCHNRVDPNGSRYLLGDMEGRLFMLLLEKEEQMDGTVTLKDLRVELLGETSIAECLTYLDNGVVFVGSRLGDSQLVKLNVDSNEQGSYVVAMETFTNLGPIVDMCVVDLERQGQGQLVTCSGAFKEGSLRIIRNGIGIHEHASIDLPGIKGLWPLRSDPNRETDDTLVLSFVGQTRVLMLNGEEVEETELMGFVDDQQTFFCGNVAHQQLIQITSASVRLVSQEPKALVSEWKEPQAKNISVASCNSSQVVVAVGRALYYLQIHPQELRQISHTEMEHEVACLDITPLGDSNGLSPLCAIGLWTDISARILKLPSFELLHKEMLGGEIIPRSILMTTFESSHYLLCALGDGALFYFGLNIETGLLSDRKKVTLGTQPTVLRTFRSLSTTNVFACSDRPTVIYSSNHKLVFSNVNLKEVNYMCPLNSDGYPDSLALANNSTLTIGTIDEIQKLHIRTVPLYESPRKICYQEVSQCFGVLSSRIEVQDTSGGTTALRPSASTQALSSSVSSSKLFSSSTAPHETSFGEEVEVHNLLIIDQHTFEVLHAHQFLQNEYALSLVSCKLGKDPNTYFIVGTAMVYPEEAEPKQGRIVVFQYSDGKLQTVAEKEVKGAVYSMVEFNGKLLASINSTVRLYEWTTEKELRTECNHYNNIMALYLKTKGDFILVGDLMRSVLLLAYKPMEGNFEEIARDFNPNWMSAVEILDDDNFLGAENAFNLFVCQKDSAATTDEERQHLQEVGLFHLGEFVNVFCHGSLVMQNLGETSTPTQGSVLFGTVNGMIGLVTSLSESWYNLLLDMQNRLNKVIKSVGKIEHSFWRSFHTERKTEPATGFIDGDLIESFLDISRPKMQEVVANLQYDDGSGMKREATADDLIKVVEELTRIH
assayText: Degradation assay for SALL4 (HiBiT tag bioluminescence assay)
Type: cell-based
experimentalContext: HT-1080, Table 2; HT-1080 SALL4 HiBiT reporter cells; all compounds tested on the same day
assayEndpoint: Dmax (%)

Example entries and their recorded answers appear below.
N#Cc1ccc(N2CCN(Cc3ccc(Cc4ccc5c6c(cc(F)cc46)C(=O)N5[C@@H]4CCC(=O)NC4=O)cc3)CC2)c(F)c1 (single isomer, unassigned) [Compound 9-A] | 57
N#Cc1ccc(N2CCN(Cc3ccc(Cc4ccc5c6c(cccc46)C(=O)N5C4CCC(=O)NC4=O)cc3)CC2)c(F)c1 (stereo not drawn) [Compound 20] | 79.3
N#Cc1ccc(N2CCN(Cc3ccc(Cc4ccc5c6c(cc(Br)cc46)C(=O)N5C4CCC(=O)NC4=O)cc3)CC2)c(F)c1 (stereo not drawn) [Compound 16] | 65.8

(a) N#Cc1ccc(N2CCN(Cc3ccc(Cc4ccc5c6c(cc(F)cc46)C(=O)N5[C@H]4CCC(=O)NC4=O)cc3)CC2)c(F)c1 (single isomer, unassigned) [Compound 9-B]
(b) N#Cc1ccc(N2CCN(Cc3ccc(Cc4ccc5c6c(c(F)ccc46)C(=O)N5C4CCC(=O)NC4=O)cc3)CC2)c(F)c1 (stereo not drawn) [Compound 15]
(c) N#Cc1ccc(N2CCN(Cc3ccc(Cc4ccc5c6c(cc(Cl)cc46)C(=O)N5C4CCC(=O)NC4=O)cc3)CC2)c(F)c1 (stereo not drawn) [Compound 17]
Order each entry by recorded Dmax, climbing from the minimum. The reply should contain the labels ordered as requested.
c, b, a
(c: 11.4%, b: 28.5%, a: 59.4%)
